# TARGET_OF_ASSAY: CCR5 (UniProt P51681)
# Sequence (P51681 whole entry): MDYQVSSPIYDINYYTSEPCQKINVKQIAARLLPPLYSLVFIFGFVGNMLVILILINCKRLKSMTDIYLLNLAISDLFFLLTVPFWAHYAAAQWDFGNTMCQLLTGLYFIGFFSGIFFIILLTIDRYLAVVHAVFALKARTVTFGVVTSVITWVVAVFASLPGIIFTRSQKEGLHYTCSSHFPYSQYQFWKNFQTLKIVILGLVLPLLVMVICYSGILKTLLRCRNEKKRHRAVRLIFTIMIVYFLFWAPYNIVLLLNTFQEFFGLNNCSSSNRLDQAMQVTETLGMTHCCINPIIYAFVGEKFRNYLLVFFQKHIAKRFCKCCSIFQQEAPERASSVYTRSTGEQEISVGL
# ASSAY_PROTOCOL: cell-based or functional assay
METRIC_NAME: Cell-fusion result for comparison (IC50) (nM)

>>> recorded_number("NNY-P-Y3Chg-RANTES (4-68) (from UniProt P13501 25-91) (ligand)")
0.026
>>> recorded_number("n-nonanoyl-RANTES (2-68), CH3-(CH2)7-C(O)-RANTES (2-68) (from UniProt P13501 25-91) (ligand)")
0.097
>>> recorded_number("NNY-P-Y3tbuA-RANTES (4-68) (from UniProt P13501 25-91) (ligand)")
0.038
>>> recorded_number("aminooxypentane-RANTES (2-68), CH3-(CH2)4-O-N=CH-CO-RANTES (2-68) (from UniProt P13501 25-91) (ligand)")
0.48

----------
# TARGET_OF_ASSAY: CCR5 (UniProt P51681)
# ASSAY_PROTOCOL: cell-based or functional assay
METRIC_NAME: Average infectivity IC50 (cell-free viral infection assay)

>>> result("aminooxypentane-RANTES (2-68), CH3-(CH2)4-O-N=CH-CO-RANTES (2-68) (from UniProt P13501 25-91) (ligand)")
"0.145 nM"
>>> result("n-nonanoyl-RANTES (2-68), CH3-(CH2)7-C(O)-RANTES (2-68) (from UniProt P13501 25-91) (ligand)")
"0.024 nM"
>>> result("NNY-P-Y3Chg-RANTES (4-68) (from UniProt P13501 25-91) (ligand)")
"0.012 nM"
>>> result("NNY-P-Y3tbuA-RANTES (4-68) (from UniProt P13501 25-91) (ligand)")
"0.014 nM"
